Measured IC50, listed per entry for reference.
biological target: RanGTP-importin-beta complex (human Ran / KPNB1); test: disruptors of RanGTP/KPNB1 binding – biochemical, FRET, CFP/YFP, cell-free homogeneous, confirmation (AID 2823); settings: CFP-Ran/YFP-importin-beta FRET ratio
Active and inactive are the calls of the source. No rule for the calls is given here.
measurement-name: IC50

INSERT INTO measurements (compound, measurement_name, result) VALUES
  ('Cc1ccccc1N=Cc1cc2c(cc1O)OC(N)=C(C#N)C2c1ccccc1 (stereo unspecified)', 'IC50', '> 50 µM (inactive)'),
  ('N=c1c(S(=O)(=O)c2ccc(Cl)cc2)cc2c(=O)n3ccccc3nc2n1Cc1cccnc1', 'IC50', '> 50 µM (inactive)'),
  ('CCOC(=O)c1c(N2C(=O)Nc3ccccc3N2O)sc2c1CCCC2', 'IC50', '> 50 µM (inactive)'),
  ('C=C(C)Cn1c(SCC(=O)O)nnc1-c1ccc(OC)cc1', 'IC50', '> 50 µM (inactive)'),
  ('Cc1cccc(C(=O)Nc2sc(C)c(-c3ccccc3)c2C#N)c1', 'IC50', '> 50 µM (inactive)'),
  ('Cc1cccc2cc(C#N)c(NCCNC(=O)COc3ccccc3)nc12', 'IC50', '> 50 µM (inactive)');

====

target: RanGTP-importin-beta complex (human Ran / KPNB1); experiment: disruptors of RanGTP/KPNB1 binding – biochemical, FRET, CFP/YFP, cell-free homogeneous, confirmation (AID 2823); details: CFP-Ran/YFP-importin-beta FRET ratio
The source made the active and inactive calls. No rule for the calls is given here.
Possible outcomes: active, inactive

INSERT INTO assay_data (molecule, target_system, assigned_class) VALUES
  ('CCc1nc(N)c(C#N)c(-c2ccc(F)cc2)c1C', 'RanGTP-importin-beta complex (human Ran / KPNB1)', 'inactive'),
  ('Cc1c(CC(=O)O)c(=O)oc2c(C)c3occ(-c4ccc(F)cc4)c3cc12', 'RanGTP-importin-beta complex (human Ran / KPNB1)', 'inactive'),
  ('COc1ccc(C(=O)c2cc3ccc(O)cc3oc2=O)cc1', 'RanGTP-importin-beta complex (human Ran / KPNB1)', 'active'),
  ('Cn1c(=O)cc(OCCCC(=O)NCc2ccccn2)c2ccccc21', 'RanGTP-importin-beta complex (human Ran / KPNB1)', 'inactive'),
  ('CCOC(=O)/C(C#N)=C/c1c(N2CCN(c3ccc(OC)cc3)CC2)nc2c(C)cccn2c1=O', 'RanGTP-importin-beta complex (human Ran / KPNB1)', 'inactive'),
  ('Cc1ccc(Nc2nc(N)nc(CC#N)n2)cc1', 'RanGTP-importin-beta complex (human Ran / KPNB1)', 'inactive'),
  ('CC1=NN(C(=O)Cn2nc([N+](=O)[O-])cc2C)C(O)(C(F)(F)F)C1 (centres undefined)', 'RanGTP-importin-beta complex (human Ran / KPNB1)', 'inactive'),
  ('Cc1ccc(-c2nnn(CC(=O)N(c3ccccc3)C(C(=O)NCC3CCCO3)c3ccc(Cl)cc3)n2)cc1 (centres undefined)', 'RanGTP-importin-beta complex (human Ran / KPNB1)', 'inactive'),
  ('CCN(C(=O)c1c(C)cc(=O)oc1C)c1ccc2c(c1)OCO2', 'RanGTP-importin-beta complex (human Ran / KPNB1)', 'inactive'),
  ('O=C(COC(=O)CSCC(=O)N1CCCCC1)Nc1ccc(Cl)cc1', 'RanGTP-importin-beta complex (human Ran / KPNB1)', 'inactive'),
  ('Cc1ccc(OCC(=O)NNc2c3ccccc3nc3ccccc23)cc1', 'RanGTP-importin-beta complex (human Ran / KPNB1)', 'inactive'),
  ('CCCCc1cc(=O)oc2c(C)c(OCC(=O)NCc3ccccn3)ccc12', 'RanGTP-importin-beta complex (human Ran / KPNB1)', 'inactive'),
  ('C/C(=N\OCC(=O)OCC(=O)NC(=O)c1ccccc1)c1ccc2c(c1)OCO2', 'RanGTP-importin-beta complex (human Ran / KPNB1)', 'inactive'),
  ('O=C(Nc1ccnc(-c2ccncc2)n1)c1ccc(Cl)cc1', 'RanGTP-importin-beta complex (human Ran / KPNB1)', 'inactive'),
  ('Oc1cccc(Nc2c3ccccc3nc3ccccc23)c1', 'RanGTP-importin-beta complex (human Ran / KPNB1)', 'inactive'),
  ('CNC(=O)c1cc2c(ccc3ccccc32)oc1=N', 'RanGTP-importin-beta complex (human Ran / KPNB1)', 'active'),
  ('O=c1[nH]c(Nc2ccccn2)cc2ccccc12', 'RanGTP-importin-beta complex (human Ran / KPNB1)', 'inactive'),
  ('O=C(O)c1c2c(nc3ccccc13)/C(=C/c1ccc(OC(F)F)cc1)CCC2', 'RanGTP-importin-beta complex (human Ran / KPNB1)', 'inactive'),
  ('CC1(C)CC(=O)C=C(Nc2ccc(S(N)(=O)=O)cc2)C1', 'RanGTP-importin-beta complex (human Ran / KPNB1)', 'inactive'),
  ('COc1ccccc1NC(=O)c1cc2ccccc2nc1C', 'RanGTP-importin-beta complex (human Ran / KPNB1)', 'inactive'),
  ('Cc1cc(C)c(S(=O)(=O)N(C)CC(N)=O)c(C)c1', 'RanGTP-importin-beta complex (human Ran / KPNB1)', 'inactive'),
  ('CN(C)c1oc(-c2cccs2)nc1C#N', 'RanGTP-importin-beta complex (human Ran / KPNB1)', 'inactive'),
  ('COc1ccc(-c2ccc(-c3noc(-c4ccccc4C)n3)c(OC)n2)cc1', 'RanGTP-importin-beta complex (human Ran / KPNB1)', 'inactive'),
  ('Cc1nn(C(=O)c2ccco2)c(C)c1CN1C(=O)c2ccccc2C1=O', 'RanGTP-importin-beta complex (human Ran / KPNB1)', 'inactive'),
  ('COc1ccc(C2NCCc3c2[nH]c2ccccc32)cc1COc1ccc(F)cc1 (centres undefined)', 'RanGTP-importin-beta complex (human Ran / KPNB1)', 'inactive'),
  ('COc1cc(OC)cc(-c2cc3nc(C)cc(N4CCN(C(=O)c5ccco5)CC4)n3n2)c1', 'RanGTP-importin-beta complex (human Ran / KPNB1)', 'active'),
  ('CCOC(=O)CNc1ncc([N+](=O)[O-])cc1C#N', 'RanGTP-importin-beta complex (human Ran / KPNB1)', 'inactive'),
  ('CCc1nnc(NC(=O)c2c(C)nn(-c3ccccc3)c2Cl)s1', 'RanGTP-importin-beta complex (human Ran / KPNB1)', 'inactive'),
  ('COc1ccc(N2C(=O)N3[C@H](c4ccc(Br)cc4)[C@@H]4C(=O)N(C(C)(C)C)C(=O)[C@@H]4[C@]3(Cc3ccccc3)C2=O)cc1', 'RanGTP-importin-beta complex (human Ran / KPNB1)', 'inactive'),
  ('Cc1sc2nc(SCC(=O)NCc3ccco3)n(-c3ccccc3)c(=O)c2c1C', 'RanGTP-importin-beta complex (human Ran / KPNB1)', 'inactive'),
  ('O=C(Oc1ccc2c3c(c(=O)oc2c1)CCCC3)c1ccco1', 'RanGTP-importin-beta complex (human Ran / KPNB1)', 'active'),
  ('Cc1cc(/C=c2/sc3nc4ccccc4n3c2=O)c(C)n1-c1ccccn1', 'RanGTP-importin-beta complex (human Ran / KPNB1)', 'inactive'),
  ('Cc1ccc(N2NC(=O)/C(=C\c3cc4c(cc3[N+](=O)[O-])OCO4)C2=O)cc1C', 'RanGTP-importin-beta complex (human Ran / KPNB1)', 'inactive'),
  ('O=C(c1cc(COc2ccc(F)cc2Cl)on1)N1CCCC(c2ccccc2)C1 (centres undefined)', 'RanGTP-importin-beta complex (human Ran / KPNB1)', 'inactive'),
  ('CCc1ccc(CNc2ccc3c(c2)ncn3C(C)(C)C)cc1', 'RanGTP-importin-beta complex (human Ran / KPNB1)', 'inactive'),
  ('CC(=O)N1CN2CN(C(C)=O)CC(C(=O)c3ccccc3)(C2)C1', 'RanGTP-importin-beta complex (human Ran / KPNB1)', 'inactive'),
  ('Oc1c(CN2CCN(c3ccc(F)cc3)CC2)cc(Cl)c2cccnc12', 'RanGTP-importin-beta complex (human Ran / KPNB1)', 'inactive'),
  ('O=c1cc(N2CCC3(CC2)OCCO3)[nH]c(=O)n1-c1ccc(Br)cc1', 'RanGTP-importin-beta complex (human Ran / KPNB1)', 'inactive'),
  ('O=C(Nc1ccc(OC(F)(F)F)cc1)c1ccc2nc[nH]c2c1', 'RanGTP-importin-beta complex (human Ran / KPNB1)', 'inactive'),
  ('Cc1ccc2cc(C#N)c(NCCNC(=O)C3CCC3)nc2c1C', 'RanGTP-importin-beta complex (human Ran / KPNB1)', 'inactive'),
  ('CC(C)Cc1nnc(NC(=O)Cc2cccs2)s1', 'RanGTP-importin-beta complex (human Ran / KPNB1)', 'inactive'),
  ('CC(C)(C)n1cnc2cc(NCc3ccc(Br)cc3)ccc21', 'RanGTP-importin-beta complex (human Ran / KPNB1)', 'inactive'),
  ('Cc1ccc(-n2c(=O)c(C#N)cc3c(=O)n4ccccc4nc32)cc1', 'RanGTP-importin-beta complex (human Ran / KPNB1)', 'active'),
  ('CCOC(=O)c1ccc(CNC(=O)CSc2nnc(-c3ccncc3)o2)cc1', 'RanGTP-importin-beta complex (human Ran / KPNB1)', 'inactive');
